subject_of_test: Acetylcholinesterase (Homo sapiens)
measurement_notes: Acetylcholinesterase (AChE) small molecule antagonists: fluorescence cell-based qHTS assay (AID 1347398); further: on the % scale 0 is the no-effect control and ±100 the full control effect; nearly all actives have a fitted effect of over 50% in size
applied_conditions: SH-SY5Y cells; series mostly up to 115 µM
Inconclusive results are not listed. The source made the active and inactive calls. The call rests on the fitted dose curve.
recorded_endpoint: activity change, negative = inhibition

Examples with answers:
>>> recorded_value("NCCNCCNCCNCCN")
"0.135% [at 10.5 µM] (inactive)"
>>> recorded_value("CCCCCCCCCCCCCCCCBr")
"-0.68% [at 23.8 µM] (inactive)"
>>> recorded_value("O=C(C(=O)c1ccc(Br)cc1)c1ccc(Br)cc1")
"-2.19% [at 23.8 µM] (inactive)"
>>> recorded_value("C=CCCCCCCCCCCCCCCCC")
"3.23% [at 10.5 µM] (inactive)"

Reported activity change, negative = inhibition ( "Cc1ccc2nc3sc(=O)sc3nc2c1" ) = 1.71% [at 23.8 µM] (inactive)

For record "C=C(C)C(=O)OCCCCCCCCCCCCCCCCCC" the listed activity change, negative = inhibition is 2.72% [at 23.8 µM] (inactive)

The reported value for "CCN1CCN(c2cc(-c3ccc(F)cc3)c3c(n2)CCCCCC3)CC1" in terms of activity change, negative = inhibition is 7.25% [at 23.8 µM] (inactive)

# compound "CN1C[C@@H]2C[C@H]1CN2c1cc2c(cc1F)c(=O)c(C(=O)O)cn2C1CC1" ; its activity change, negative = inhibition = 1.64% [at 23.8 µM] (inactive)
